Cited source for all entries: paper PMC6773690

biological target: T1, GST-SCRIB PDZ domain 1 (UniProt Q14160 728-815); test: BLI; Octet Red 96; 50 nM biotin-labeled α1D-CT peptide immobilised on streptavidin probes, then biocytin; serial dilutions of purified PDZ proteins as analytes until steady state; 20 mM Tris-HCl pH 8.0, 200 mM NaCl, 0.1% bovine serum albumin; settings: both partners purified
T1 construct: scribble (SCRIB), PDZ domain 1 alone; also called SCRIB PDZ1; PDZ1; source: E. coli Rosetta (DE3), purified (glutathione agarose); not shown: GST, N-terminal, kept
T1 sequence (Q14160 728-815): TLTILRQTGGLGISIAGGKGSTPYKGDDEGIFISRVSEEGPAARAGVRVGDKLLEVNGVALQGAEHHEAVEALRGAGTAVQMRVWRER
Ends that are not written are not given here.
test_readout: Kd

Quick one: Kd for GATCQAYELADYSNLRETDI (peptide, UniProt P25100 553-572, looked up, also: biotin label (position not given here), α1D-adrenergic receptor, distal (last) 20 amino acids of the C-terminus; also called α1D-CT; α1D-AR C-terminal PDZ ligand; source: synthetic peptide, bought: BioMatik) [biotin-labeled peptide containing the last 20 amino acids of the α1D-adrenergic receptor C-terminus] ?
1930 nM
